Overview of recorded pEC50 for various binders
Target: T1, human PD-L1, membrane-bound, on hPD-L1-transfected CHO cells (human, UniProt Q9NZQ7 19-290)
T1 construct: The catalogue suffix -CH may mean a C-terminal His tag (surmise); also called CHO PD-L1; source: CHO cells, stably transfected (pCMV3-full-length human PD-L1, hygromycin selection), on cells
T1 sequence (Q9NZQ7 19-290): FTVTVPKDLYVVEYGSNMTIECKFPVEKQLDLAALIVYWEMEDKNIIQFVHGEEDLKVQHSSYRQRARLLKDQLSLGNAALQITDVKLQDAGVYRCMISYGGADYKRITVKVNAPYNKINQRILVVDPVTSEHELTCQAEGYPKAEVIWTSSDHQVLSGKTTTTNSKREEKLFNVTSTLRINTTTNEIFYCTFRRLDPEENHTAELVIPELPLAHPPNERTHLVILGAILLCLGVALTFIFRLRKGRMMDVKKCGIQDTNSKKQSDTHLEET
Assay: flow cytometry on cells; dilution series on hPD-L1-transfected and wild-type CHO cells in PBS, 30 min at 4 °C; ATTO488 fluorescence; EC50 from MFI by 4-parameter logistic fit
Conditions: one partner purified
pEC50 here is simply -log10 of the concentration when that concentration is written in mol/L.

# Binder, pEC50
rows = [
    ("YANPHLPWSWXXXCG (ClAc on the N-terminus (peptide cyclised, macrocyclic); MeAla at 2; Hyp at 7; Trp(Me) at 10; MeNle at 11 and 12; Orn at 13; C-terminal amide; ATTO488 fluorophore (site not told in the text shown)) [ATTO488-WL12]", 6.57),
]

Lab note: next binder to report on.
**Query** Determine from records and report pEC50 for YANPHLPWSWXXXCG (other, ClAc on the N-terminus (peptide cyclised, macrocyclic); MeAla at 2; Hyp at 7; Trp(Me) at 10; MeNle at 11 and 12; Orn at 13; C-terminal amide; amino group of the peptide bound to the HPMA copolymer) [iBody 1 (HPMA copolymer carrying WL12, ATTO488 and biotin)]
**Result** 8.18

Values compiled from paper PMC11154707.
